This listing pairs compounds with measured inhibition.
- assay_target: Ephrin type-B receptor 4 (Homo sapiens);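 further: each value is a mean percent inhibition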
- measurement_conditions: at 0.1 µM

chemical_structure | assay_target | readout_units | inhibition
CN(C)CCOc1ccc(-c2nc(-c3ccncc3)c(-c3ccc4c(c3)CC/C4=N\O)[nH]2)cc1 | Ephrin type-B receptor 4 (Homo sapiens) | % | 1.85
COc1ccc(CNC(=O)c2ccc(-c3cc(-c4nnc(C)o4)ccc3C)cc2)cc1 | Ephrin type-B receptor 4 (Homo sapiens) | % | 1.69
NC(=O)c1sc(-n2cnc3ccc(C(F)(F)F)cc32)cc1OCc1ccccc1Br | Ephrin type-B receptor 4 (Homo sapiens) | % | -1.54
COc1ccc(-c2cc3c(N)ncnc3o2)cc1 | Ephrin type-B receptor 4 (Homo sapiens) | % | 0.49
CN1CCC(n2cnc(-c3ccc(F)cc3)c2-c2ccnc(Nc3ccccc3)n2)CC1 | Ephrin type-B receptor 4 (Homo sapiens) | % | 3.77
COc1ccc(-c2oc3ncnc(N)c3c2-c2ccc(NC(=O)Nc3cc(C(F)(F)F)ccc3F)cc2)cc1 | Ephrin type-B receptor 4 (Homo sapiens) | % | 83.7
CCn1c(-c2nonc2N)nc2ccccc21 | Ephrin type-B receptor 4 (Homo sapiens) | % | 1.03
Nc1nc(-c2cccc(Cl)c2)c(-c2ccc3ncccc3n2)s1 | Ephrin type-B receptor 4 (Homo sapiens) | % | 2.58
O=C(Nc1n[nH]c2cc(-c3ccc(F)cc3)ccc12)C1CC1 | Ephrin type-B receptor 4 (Homo sapiens) | % | 1.47
CCn1c(-c2nonc2N)nc2cnc(Oc3cccc(NC(=O)c4ccc(N(C)C)cc4)c3)cc21 | Ephrin type-B receptor 4 (Homo sapiens) | % | 0.67
COc1cc2ncn(-c3cc(OCc4ccccc4C(F)(F)F)c(C(=O)N(C)C)s3)c2cc1OC | Ephrin type-B receptor 4 (Homo sapiens) | % | -1.02
NS(=O)(=O)c1ccc(N/N=C2\C(=O)Nc3ccc4ncccc4c32)cc1 | Ephrin type-B receptor 4 (Homo sapiens) | % | 2.29
Cc1cccc(Nc2ncc(-c3ccccc3)o2)c1 | Ephrin type-B receptor 4 (Homo sapiens) | % | 2.8
c1cc(-c2cnn3nc(N4CCOCC4)ccc23)nc(NC2CC2)n1 | Ephrin type-B receptor 4 (Homo sapiens) | % | 0.45
N#Cc1c(NC(=O)CN2CCOCC2)sc2c1CCCC2 | Ephrin type-B receptor 4 (Homo sapiens) | % | 2.41
Fc1ccc(-c2nn3ncccc3c2-c2ccnc(Nc3ccc4c(c3)OCCO4)n2)cc1 | Ephrin type-B receptor 4 (Homo sapiens) | % | 20.1
CNC(=O)c1cc(-c2ccc(F)cc2)cc(-c2ccc(S(=O)(=O)N3CCCC3)cc2)c1N | Ephrin type-B receptor 4 (Homo sapiens) | % | 1.99
CCc1nn2ncccc2c1-c1ccnc(NC2CC2)n1 | Ephrin type-B receptor 4 (Homo sapiens) | % | 1.21
COC(=O)Nc1nc2ccc(Oc3ccc(NC(=O)Nc4cccc(Cl)c4)cc3)cc2[nH]1 | Ephrin type-B receptor 4 (Homo sapiens) | % | 4.66
N#Cc1c(NC(=O)c2ccc(F)cc2)sc2c1CCCC2 | Ephrin type-B receptor 4 (Homo sapiens) | % | -0.69
Nc1ncc(-c2cccc(S(N)(=O)=O)c2)c2scc(-c3ccc(F)c(Cl)c3)c12 | Ephrin type-B receptor 4 (Homo sapiens) | % | 49.3
O=S(=O)(CCNCc1ccc(-c2ccc3ncnc(Nc4ccc(OCc5cccc(F)c5)c(Cl)c4)c3c2)o1)c1ccccc1 | Ephrin type-B receptor 4 (Homo sapiens) | % | 0.96
CNC(=O)c1cccc(C#Cc2cncnc2Nc2ccc(OCc3cccc(F)c3)c(Cl)c2)c1 | Ephrin type-B receptor 4 (Homo sapiens) | % | -1.02
CCOc1ccc2c(-c3ccnc(Nc4cccc(C(F)(F)F)c4)n3)cnn2n1 | Ephrin type-B receptor 4 (Homo sapiens) | % | 1.01
COc1cccc(-c2c[nH]c3c(N/N=C/c4ccncc4)ncnc23)c1 | Ephrin type-B receptor 4 (Homo sapiens) | % | 3.21
NS(=O)(=O)c1ccc(Nc2ncc(-c3ccccc3)o2)cc1 | Ephrin type-B receptor 4 (Homo sapiens) | % | 2.27
COc1cccc(-n2ncc3c(N/N=C/c4ccc(F)cc4)ncnc32)c1 | Ephrin type-B receptor 4 (Homo sapiens) | % | 1.79
CS(=O)(=O)CCNCc1coc(-c2ccc3ncnc(Nc4ccc(OCc5ccccc5)cc4)c3c2)c1 | Ephrin type-B receptor 4 (Homo sapiens) | % | 2.88
CCCN1CCC(c2ccc(Nc3nc(Nc4cc(F)ccc4C(N)=O)c4cc[nH]c4n3)c(OC)c2)CC1 | Ephrin type-B receptor 4 (Homo sapiens) | % | 3.08
Cc1ccc(O)cc1Nc1ccnc2cc(-c3ccccn3)ccc12 | Ephrin type-B receptor 4 (Homo sapiens) | % | 87.3
CCNC(=O)O[C@H]1CN[C@H](C#Cc2cc3ncnc(Nc4ccc(OCc5cccc(F)c5)c(Cl)c4)c3s2)C1 | Ephrin type-B receptor 4 (Homo sapiens) | % | 3.25
COc1ccc2[nH]c3c4[nH]c5ccc(OC)cc5c4c4c(c3c2c1)C(=O)NC4=O | Ephrin type-B receptor 4 (Homo sapiens) | % | -0.01
Fc1cccc(COc2ccc(Nc3ncnc4sc(-c5ccco5)cc34)cc2Cl)c1 | Ephrin type-B receptor 4 (Homo sapiens) | % | 4
[O-][S+]1CCN(Cc2ccc(-c3ccc4ncnc(Nc5ccc(OCc6cccc(F)c6)c(Cl)c5)c4c3)o2)CC1 | Ephrin type-B receptor 4 (Homo sapiens) | % | 2.75
c1ccc(-c2nc3n(c2-c2ccc4c(c2)OCO4)CCC3)nc1 | Ephrin type-B receptor 4 (Homo sapiens) | % | 0.53

###

This listing pairs molecules with measured inhibition.
- System: Epidermal growth factor receptor (Homo sapiens), P00533 [T790M]
- Sequence (P00533 whole entry T790M): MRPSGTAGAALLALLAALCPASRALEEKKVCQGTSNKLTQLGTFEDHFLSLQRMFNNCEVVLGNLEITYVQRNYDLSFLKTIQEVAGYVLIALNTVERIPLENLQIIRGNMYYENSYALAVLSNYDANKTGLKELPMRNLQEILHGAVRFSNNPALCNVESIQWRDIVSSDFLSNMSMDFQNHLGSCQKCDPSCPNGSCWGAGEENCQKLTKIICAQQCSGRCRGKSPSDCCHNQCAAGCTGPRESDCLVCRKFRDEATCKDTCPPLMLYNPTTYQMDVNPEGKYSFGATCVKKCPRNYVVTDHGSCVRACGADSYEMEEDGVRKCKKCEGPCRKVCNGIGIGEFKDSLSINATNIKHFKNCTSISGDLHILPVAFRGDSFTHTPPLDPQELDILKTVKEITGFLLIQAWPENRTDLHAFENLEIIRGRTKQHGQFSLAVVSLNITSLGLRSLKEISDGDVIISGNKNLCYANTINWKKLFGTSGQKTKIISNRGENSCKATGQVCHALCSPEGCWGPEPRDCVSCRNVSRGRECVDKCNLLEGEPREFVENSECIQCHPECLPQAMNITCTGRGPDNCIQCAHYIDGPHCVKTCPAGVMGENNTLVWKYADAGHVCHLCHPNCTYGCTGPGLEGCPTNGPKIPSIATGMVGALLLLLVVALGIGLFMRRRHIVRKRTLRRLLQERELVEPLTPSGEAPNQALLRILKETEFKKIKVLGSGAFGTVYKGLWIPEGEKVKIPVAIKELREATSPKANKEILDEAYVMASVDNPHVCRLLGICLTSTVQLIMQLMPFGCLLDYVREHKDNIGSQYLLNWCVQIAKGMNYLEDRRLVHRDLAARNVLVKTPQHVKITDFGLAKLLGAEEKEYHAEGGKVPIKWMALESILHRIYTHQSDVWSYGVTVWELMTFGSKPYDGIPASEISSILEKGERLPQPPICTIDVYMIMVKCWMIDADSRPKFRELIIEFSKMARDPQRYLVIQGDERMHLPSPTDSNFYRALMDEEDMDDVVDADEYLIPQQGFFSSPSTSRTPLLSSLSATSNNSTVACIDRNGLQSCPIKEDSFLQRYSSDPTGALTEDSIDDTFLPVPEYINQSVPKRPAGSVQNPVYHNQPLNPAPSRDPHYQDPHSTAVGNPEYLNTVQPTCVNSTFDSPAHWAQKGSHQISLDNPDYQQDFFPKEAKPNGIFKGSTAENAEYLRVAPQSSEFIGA
- measurement_conditions: at 1 µM
value_type: inhibition (%)

chemical_structure | value_type | readout_units | measured_value
COc1ccc(-c2cc3c(N)ncnc3o2)cc1 | inhibition | % | -2.06
[O-][S+]1CCN(Cc2ccc(-c3ccc4ncnc(Nc5ccc(OCc6cccc(F)c6)c(Cl)c5)c4c3)o2)CC1 | inhibition | % | 22
c1ccc(COc2ccc(Nc3ncnc4ccc(-c5ccco5)cc34)cc2)cc1 | inhibition | % | 5
COc1ccc(-c2oc3ncnc(N)c3c2-c2ccc(NC(=O)Nc3cc(C(F)(F)F)ccc3F)cc2)cc1 | inhibition | % | 3.03
FC(F)(F)c1cccc(-c2nn3ncccc3c2-c2ccnc(Nc3ccc4c(c3)OCCO4)n2)c1 | inhibition | % | 8.22

###

- assay_target: Protein kinase C gamma type (Homo sapiens);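 further: each value is an averaged percent inhibition of the enzyme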
- measurement_conditions: at 1 µM

chemical_structure | assay_target | inhibition [%]
c1ccc(-c2nc3n(c2-c2ccc4c(c2)OCO4)CCC3)nc1 | Protein kinase C gamma type (Homo sapiens) | 2.8
CC(C)(CO)CNC(=O)c1ccc2c(c1)/C(=N/Nc1ccc(S(N)(=O)=O)cc1)C(=O)N2 | Protein kinase C gamma type (Homo sapiens) | 3.43
CCOc1ccc2c(-c3ccnc(Nc4cccc(C(F)(F)F)c4)n3)cnn2n1 | Protein kinase C gamma type (Homo sapiens) | 2.94
c1cc(-c2cnn3nc(N4CCOCC4)ccc23)nc(NC2CC2)n1 | Protein kinase C gamma type (Homo sapiens) | 1.85
COc1ccc2[nH]c3c4[nH]c5ccc(OC)cc5c4c4c(c3c2c1)C(=O)NC4=O | Protein kinase C gamma type (Homo sapiens) | 11.7
Fc1cccc(COc2ccc(Nc3ncnc4sc(-c5ccco5)cc34)cc2Cl)c1 | Protein kinase C gamma type (Homo sapiens) | 1.6
CS(=O)(=O)CCNCc1coc(-c2ccc3ncnc(Nc4ccc(OCc5ccccc5)cc4)c3c2)c1 | Protein kinase C gamma type (Homo sapiens) | 4.91
[O-][S+]1CCN(Cc2ccc(-c3ccc4ncnc(Nc5ccc(OCc6cccc(F)c6)c(Cl)c5)c4c3)o2)CC1 | Protein kinase C gamma type (Homo sapiens) | 1.04
CNC(=O)c1cncc(/C=C/c2ccccc2Cl)c1 | Protein kinase C gamma type (Homo sapiens) | 3.18
COC(=O)Nc1nc2ccc(S(=O)(=O)c3ccc(NC(=O)Nc4cc(C(F)(F)F)ccc4F)cc3)cc2[nH]1 | Protein kinase C gamma type (Homo sapiens) | 1.8
CCc1nn2ncccc2c1-c1ccnc(NC2CC2)n1 | Protein kinase C gamma type (Homo sapiens) | 4.3
CCNC(=O)O[C@H]1CN[C@H](C#Cc2cc3ncnc(Nc4ccc(OCc5cccc(F)c5)c(Cl)c4)c3s2)C1 | Protein kinase C gamma type (Homo sapiens) | 3.31
Nc1ncc(-c2cccc(S(N)(=O)=O)c2)c2scc(-c3ccc(F)c(Cl)c3)c12 | Protein kinase C gamma type (Homo sapiens) | 2.77
COC(=O)c1sc(-n2cnc3cc(OC)c(OC)cc32)cc1OCc1ccccc1C(F)(F)F | Protein kinase C gamma type (Homo sapiens) | 2.66
COc1cc2ncn(-c3cc(OCc4ccccc4C(F)(F)F)c(C(=O)N(C)C)s3)c2cc1OC | Protein kinase C gamma type (Homo sapiens) | 0.13
Cc1ccc(O)cc1Nc1ccnc2cc(-c3ccccn3)ccc12 | Protein kinase C gamma type (Homo sapiens) | 4.48
O=C(O[C@H]1CN[C@H](C#Cc2cc3ncnc(Nc4ccc(Cc5ccccc5)cc4)c3s2)C1)N1CCOCC1 | Protein kinase C gamma type (Homo sapiens) | 3.28
Cc1cccc(Nc2ncc(-c3ccccc3)o2)c1 | Protein kinase C gamma type (Homo sapiens) | 7.25
NS(=O)(=O)c1ccc(Nc2ncc(-c3ccccc3)o2)cc1 | Protein kinase C gamma type (Homo sapiens) | 2.49
N#Cc1c(NC(=O)CN2CCOCC2)sc2c1CCCC2 | Protein kinase C gamma type (Homo sapiens) | 4.29
CCN(CC)S(=O)(=O)c1ccc(OC)c(Nc2ncc(-c3ccccc3)o2)c1 | Protein kinase C gamma type (Homo sapiens) | 3.98
CCCN1CCC(c2ccc(Nc3nc(Nc4cc(F)ccc4C(N)=O)c4cc[nH]c4n3)c(OC)c2)CC1 | Protein kinase C gamma type (Homo sapiens) | 29.8
